- System: Mus musculus
- protocol.description: Analgesic activity in C57Bl/6 mouse assessed as inhibition of Bv8-induced decrease in latencies to paw withdrawal administered as intraplantar route at 48 degC after 15 to 180 mins
- Format: functional, organism-based
Recorded EC50, one value per entry.

{"columns": ["chemical.string", "study.target", "unit.label", "EC50"],
 "data": [
  ["COc1ccc(Cn2c(=O)nc(NCCNC(=N)N)n(Cc3ccc(Cl)c(Cl)c3)c2=O)cc1", "Mus musculus", "pmol", 4.5],
  ["COc1ccc(Cn2c(=O)nc(NCCNC(=N)N)n(Cc3ccc(Cl)cc3)c2=O)cc1", "Mus musculus", "pmol", 4.4],
  ["COc1ccc(Cn2c(NCCNC(=N)N)nc(=O)n(Cc3ccc(C)cc3)c2=O)cc1", "Mus musculus", "pmol", 4.4],
  ["COc1ccc(Cn2c(NCCNC(=N)N)nc(=O)n(Cc3ccc(C(F)(F)F)cc3)c2=O)cc1", "Mus musculus", "pmol", 51],
  ["COc1ccc(Cn2c(NCCNC(=N)N)nc(=O)n(Cc3ccc4c(c3)OCO4)c2=O)cc1", "Mus musculus", "pmol", 39],
  ["COc1ccc(Cn2c(NCCNC(=N)N)nc(=O)n(Cc3ccc(Cl)cc3)c2=O)cc1", "Mus musculus", "pmol", 4],
  ["Cc1ccc(Cn2c(NCCNC(=N)N)nc(=O)n(Cc3ccc(C(F)(F)F)cc3)c2=O)cc1", "Mus musculus", "pmol", 0.033],
  ["CCc1ccc(Cn2c(=O)nc(NCCNC(=N)N)n(Cc3ccc(OC)cc3)c2=O)cc1", "Mus musculus", "pmol", 5.8],
  ["COc1ccc(Cn2c(NCCNC(=N)N)nc(=O)n(Cc3ccc(I)cc3)c2=O)cc1", "Mus musculus", "pmol", 51],
  ["COc1ccc(Cn2c(=O)nc(NCCNC(=N)N)n(Cc3ccc(C(F)(F)F)cc3)c2=O)cc1", "Mus musculus", "pmol", 48]
]}
